This listing pairs binders with measured OD 450 nm.
system_name: T1, cTnI quality control product recombinant protein (human, UniProt P19429 1-210, limits assumed)
T1 construct: the assay paragraphs only say cTnI; also called cardiac troponin I; cTnI antigen
test_name: capture ELISA, antibody 111.111 ng/ml, cTnI 0.15 ug/ml
Output spec: scalar in OD, unitless text.

Some solved entries appear below for comparison.
Mutation 4 (antibody, V domains shown, other CDR sites as WT) VH: QVQLQQSGTELAKPGASVKFSCKASNYTFSTYWMYWIKQRPGQGLEWIGYLNPSSGHTKYNQRFKDKATLTADKSSSTAYMQLNSLTSEDSAVYYCARKYFGPFNMDYWGQGTSVTVSS VL: EIFLTQSPAIMSASPGEKVTMTCSASTTVSYEHWYQQKSGTSPKRWLYDQSKIASGIPVRFSGSGSGTSYSLTISSMEAEDAATYYCQVWSTQPYTFGGGTKLEIKR | 0.374
Mutation 1 (antibody, V domains shown, other CDR sites as WT) VH: QVQLQQSGTELAKPGASVKFSCKASGYTFSTYWMYWIKQRPGQGLEWIGYLNPSSGHTDYNQRFKDKATLTADKSSSTAYMQLNSLTSEDSAVYYCARKYFGPFGMDYWGQGTSVTVSS VL: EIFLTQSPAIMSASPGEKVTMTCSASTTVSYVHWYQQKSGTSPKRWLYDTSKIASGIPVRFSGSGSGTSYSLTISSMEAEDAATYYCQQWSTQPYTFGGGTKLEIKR | 2.4

Read the next record carefully.
Exam item: OD 450 nm lookup needed for Mutation 5 (antibody, V domains shown, other CDR sites as WT) VH: QVQLQQSGTELAKPGASVKFSCKASWYTFSTYWMYWIKQRPGQGLEWIGYLNPSSGHTVYNQRFKDKATLTADKSSSTAYMQLNSLTSEDSAVYYCARKYFGPFSMDYWGQGTSVTVSS VL: EIFLTQSPAIMSASPGEKVTMTCSASTTVSYSHWYQQKSGTSPKRWLYDYSKIASGIPVRFSGSGSGTSYSLTISSMEAEDAATYYCQEWSTQPYTFGGGTKLEIKR , thanks.
Marked response: 0.247
